Quick list: growth per entry.
Tested on: HOP-62 NSCLC
Assay Comment: NCI-60 one-dose screen, 48 h (100 = growth as untreated, 0 = no growth, -100 = all killed)
Test Parameters: 10 µM unless noted
Compounds without any hit were thinned out: in the full panel of roughly 83,000, 20% have a hit.
# unit: % | format: bare number

Exercise: Quick one: growth for COc1ccc(C(=O)N2c3ccccc3Sc3ccccc32)c(C(F)(F)F)c1 ?
Key: 42.8

Exercise: And COc1ccc(N2CCC(=S)NC2=S)cc1 ?
Key: 108

Exercise: Subsequent entry: CSc1nc(C)c([N+](=O)[O-])c(N)n1
Key: 104

Exercise: Same thing, different compound: Oc1c(CN2CCC(N3CCCCC3)CC2)cc(Cc2cc(CN3CCC(N4CCCCC4)CC3)c(O)c3ncccc23)c2cccnc12
Key: 18.6

Exercise: Repeat for the following compound: CNC1=C([N+](=O)[O-])C(c2ccc(OC)cc2)C(C#N)=C(c2cccs2)O1 (stereo not given)
Key: 99.6

Exercise: Proceed to O=C(NC1CC(F)C1)c1cc2cccnc2n1-c1ccc(Cl)c(Cl)c1 (stereo not given)
Key: 98.9

Exercise: Follow-up item: Ic1ccccc1I
Key: 90.3

Exercise: Same question for CCC1S/C(=N\N=C(\C)c2cc3cc(Cl)ccc3o2)N(c2ccccc2)C1=O (stereo not given) please.
Key: 100

Exercise: Now consider CCOc1ccc(-n2nc(C(=O)NCc3ccccc3OC)nc2-c2cc(OC)c(OC)c(OC)c2)cc1 and answer again.
Key: 62.2

Exercise: Query O=C1/C(=C/c2ccc(F)cc2)CN(C(=O)C(Cl)Cl)C/C1=C\c1ccc(F)cc1 next
Key: -19.1

###

System: SNB-19 CNS
Assay Comment: NCI-60 one-dose screen, 48 h
Test Parameters: 10 µM unless noted
Procedure: Growth inhibition of the SNB-19 human tumor cell line is measured as a screen for anti-cancer activity. Cells are grown in 96 well plates and exposed to the test compound for 48 hours. Compounds are tested at a single concentration, which is 10^-5 M for most compounds. The reported endpoint is percent growth (GI% or GIPRCNT), where numbers from 0 - 100% represent growth inhibition, and numbers from -100% - 0 represent cell death. For example, a value of 40 represents 60% growth inhibition. […]
The panel holds about 83,000 compounds, 20% with a hit somewhere; the sample as a whole holds those more often. Activity calls are given as the source filed them. Rule for the calls: active = growth percent below 10; inactive = the rest.
// classify into active, inactive

- Compound: "Nc1nc(NC(=O)Nc2ccc(C(=O)O)cc2)nn1-c1ccc(S(N)(=O)=O)cc1"
  Assigned Class: "inactive"
- Compound: "N=C(N)c1ccc(-c2ccc(-c3ccccc3)s2)cc1"
  Assigned Class: "inactive"
- Compound: "CN(CCC(=O)c1ccccc1)CCC(=O)c1ccccc1"
  Assigned Class: "inactive"
- Compound: "CCOC(=O)c1c(C)nc2ccccc2c1/C=C/c1ccccc1"
  Assigned Class: "inactive"
- Compound: "CNC(C)[C@H]1CCC2C3CC=C4C(=O)[C@@H](NC(=O)C=C(C)C)CC[C@]4(C)C3CC[C@@]21C (stereo not given in full)"
  Assigned Class: "inactive"

Exercise: Field: outcome | Entry: C=C1C(=O)O[C@H]2[C@H]1CC/C(Cn1cc(CCC)nn1)=C\CC[C@@]1(C)O[C@@H]21
Key: inactive

Exercise: Follow-up item: O=C(C1CCCCC1)[C@@H]1[C@]2(C(=O)NC3CCCCC32)[C@@H]2CCCN2[C@@]12C(=O)NC1CCC(Cl)CC12 (stereo not given in full)
Key: active

Exercise: // query: CC1C(/C=N/NC(N)=S)C(C#N)(C#N)C1(C#N)C#N (stereo not given)
Key: inactive

Exercise: Lookup COc1ccc2c(c1)c(-c1nc(-c3c[nH]c4ncccc34)cs1)cn2CCO
Key: inactive

Exercise: Same question, Cc1nn(-c2ccccc2)c(N)c1N=C1NC(=O)/C(=C/c2ccc(Br)cc2)S1 this time
Key: inactive

Exercise: Same read-out for CN(C)CCCNC(=O)c1cncnc1Nc1ccc(OCc2cccc(F)c2)c(Cl)c1 ?
Key: inactive

Exercise: Would you kindly repeat that for COc1ccc(-c2nc(-c3cn(C)c4ncccc34)cs2)cc1 ?
Key: inactive

Exercise: CCCCNC(=O)Oc1ccc(/C(=C(/C)Cc2ccc(OC)cc2)c2ccc(OCCN3CCCCCC3)cc2)cc1 ?
Key: inactive

Exercise: Another compound: O=C1Nc2ccccc2/C1=C/c1cccn1C(=O)c1ccc(Cl)s1
Key: inactive

Exercise: What about Nc1nc(N)c(N=Nc2ccccc2)c(-c2ccccc2)n1 ?
Key: inactive

Exercise: Next record, please: C[C@]1(O)CC(=O)[C@]2(O)C3=C(C=C[C@]2(O)C1)C(=O)c1c(O)cccc1C3=O
Key: inactive

Exercise: Lookup O=C1C(Nc2ccccn2)=C(I)C(=O)c2ncccc21
Key: active

Exercise: Moving on to Cc1cccc2c1C[C@@]1(C2=O)C(c2ccc(C(C)(C)C)cc2)=NOS1=O (stereo not given in full)
Key: inactive

Exercise: And then CN(Cc1cnc2nc(N)nc(N)c2n1)c1ccc(C(=O)NC(CCC(=O)O)C(=O)O)cc1Br (stereo not given) , what is it?
Key: inactive

Exercise: Next record, please: CCn1cc(CNc2ccc(C(=O)Nc3cc4cc(OC)c(OC)cc4c(C)n3)cc2)cn1
Key: inactive

###

Test system: U251 CNS
Assay Comment: NCI-60 one-dose screen, 48 h
Test Parameters: 10 µM unless noted
The panel holds about 83,000 compounds, 20% with a hit somewhere; the sample as a whole holds those more often. Activity calls are given as the source filed them. The calls were made as follows: active = growth percent below 10; inactive = the rest.
Thanks in advance; please answer with one of these: 1 = active, -1 = inactive

- Compound: "CCCCCCCCCCCCCCCCCCOc1ccccc1CC(=O)NCC[N+]1(C)CCCCC1"
  Assigned Class: -1
- Compound: "CC[C@]12C=CCN3CC[C@@]4(c5ccc(OC)cc5N(C)[C@H]4[C@@](O)(C(=O)OC)[C@@H]1OC(=O)CCC[P+](c1ccccc1)(c1ccccc1)c1ccccc1)[C@@H]32"
  Assigned Class: 1
- Compound: "COc1cc(OC)c2sc(-c3ccc(-n4cncc4-c4cc(OC)c(OC)c(OC)c4)cc3)nc2c1"
  Assigned Class: -1
- Compound: "C/C=C(\\C)C(=O)N[C@H]1C(O)C[C@]2(C)C3CC[C@@]4(C)C(CC[C@@H]4C(C)N(C)C)C3CCC2C1O (stereo partly drawn)"
  Assigned Class: -1
- Compound: "CC/C=C\\C[C@H](O)C/C=C1/C(=O)C=C[C@@H]1C/C=C\\CCCC(=O)O"
  Assigned Class: 1
- Compound: "Cc1ccc(-c2nc3nc(-c4ccccc4)nc(N4CCCN(S(C)(=O)=O)CC4)c3o2)cc1"
  Assigned Class: -1
- Compound: "Cc1ccnc(Nc2ccc([N+](=O)[O-])c(NCCN3CCOCC3)n2)c1"
  Assigned Class: -1
- Compound: "Cc1ccc2c(-n3nc(C#N)c(C#N)c3N)cc(=O)[nH]c2c1"
  Assigned Class: -1

Exercise: Give the logged outcome of this assay for the following compound: Cc1ccc(Cl)cc1NC(=O)c1sc2nc3c(cc2c1N)C(=O)CCC3
Key: -1

Exercise: Also CCOC(=O)C(=CNc1cnc(Nc2ccc(N3CCOCC3)cc2)nc1Oc1ccc(OC)cc1)C(=O)OCC , if possible.
Key: 1

Exercise: Request: COCCn1cc(-c2csc(-c3c[nH]c4ccc(Br)cc34)n2)c2cccnc21
Key: -1

###

Listed compounds paired with reported growth
Test system: UACC-62 melanoma
Assay Comment: NCI-60 one-dose screen, 48 h (100 = growth as untreated, 0 = no growth, -100 = all killed)
Test Parameters: 10 µM unless noted
Protocol: Growth inhibition of the UACC-62 human tumor cell line is measured as a screen for anti-cancer activity. Cells are grown in 96 well plates and exposed to the test compound for 48 hours. Compounds are tested at a single concentration, which is 10^-5 M for most compounds. The reported endpoint is percent growth (GI% or GIPRCNT), where numbers from 0 - 100% represent growth inhibition, and numbers from -100% - 0 represent cell death. For example, a value of 40 represents 60% growth inhibition. […]
About 83,000 compounds went through this panel and 20% of them were active in at least one assay; those are over-represented in the sample as a whole.
Only the number, expressed in %, is required.

Exercise: Fill in the blank: the reported growth of O=C(/C=C/c1cccc(Cl)c1Cl)Nc1ncc(Cc2ccccc2Cl)s1 is ____.
Key: 42.7

Exercise: Continue with Cc1ccc(C(=O)c2ccc(CC(=O)NN3C(=O)c4ccccc4C3=O)n2C)cc1
Key: 94.2

Exercise: Similarly, COc1cc(Cl)c(C)cc1NC(=O)c1cc2ccccc2cc1O ?
Key: 14.2

Exercise: And the next one, Nc1[nH]n2cc(-c3ccc(F)cc3)nc2c1N=Nc1ccc(S(N)(=O)=O)cc1 ?
Key: 71.4

Exercise: What do you have for C=C1CC[C@@H]2C(C)(C)[C@@H](O)CC[C@@]2(C)[C@@H]1COc1ccc2ccc(=O)oc2c1 ?
Key: 55.1
